Give 7.4 kd/ 6.0 kd for every item shown.
system-under-test: T1, hVISTA-ECD 6-His tag (human, UniProt Q9H7M9 33-193)
T1 construct: also called monovalent hVISTA-ECD; human VISTA
T1 sequence (Q9H7M9 other isoform, or with tags, fused parts or gaps limits assumed): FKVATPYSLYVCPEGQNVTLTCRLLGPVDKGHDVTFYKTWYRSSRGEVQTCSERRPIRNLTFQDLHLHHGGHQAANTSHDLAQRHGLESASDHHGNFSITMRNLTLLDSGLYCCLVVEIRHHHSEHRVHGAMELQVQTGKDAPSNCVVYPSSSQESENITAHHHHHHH
assay-notes: SPR; kd at pH 6.9 over kd at pH 6.0 (head prints 7.4)

Give recorded 7.4 kd/ 6.0 kd. P1-070976 (41F11_VH_T28P_Y50W_S55E_D95H_L96E_P97E_Y100E; Vk_A64G) (antibody, V domains shown, They look like Kabat positions on the mature VH, but no numbering scheme is stated; also called P1-070976-11) VH: QVQLVESGGGLVKPGGSLRLSCAASGFPFSDYYMSWIRQAPGKGLEWVSWISNSGEPIYYADSVKGRFTISRDNAKNSLYLQMNSLRAEDTAVYYCARHEEGWEFDLWGRGTLVTVSS VL: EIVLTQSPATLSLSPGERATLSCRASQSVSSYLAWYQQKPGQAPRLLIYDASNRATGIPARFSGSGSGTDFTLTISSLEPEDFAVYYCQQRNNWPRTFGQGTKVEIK
4.4

Give recorded 7.4 kd/ 6.0 kd. P1-068744 (antibody, human IgG1, kappa, V domains shown, also called P1-068744-7) VH: QVQLVESGGGVVQPGRSLRLSCAASGFTFSEYAMHWVRQAPGKGLEWVAHIWYDGSNKYEADSVKGRFTISRDNSKNTLYLQMNSLRAEDTAVYYCARDSGFYESYYFDEWGQGTLVTVSS VL: EIVLTQSPATLSLSPGERATLSCRASQSVSSSYLAWYQQKPGQAPRLLIYDASNRATGIPARFSGSGSGTDFTLTISSLEPEDFATYYCQQYNSYPYTFGQGTKLEIKR
7.9

Give recorded 7.4 kd/ 6.0 kd. P1-061520 (41F11 VK_A64G) (antibody, V domains shown, also called P1-061520-21; VISTA.4.A64G) VH: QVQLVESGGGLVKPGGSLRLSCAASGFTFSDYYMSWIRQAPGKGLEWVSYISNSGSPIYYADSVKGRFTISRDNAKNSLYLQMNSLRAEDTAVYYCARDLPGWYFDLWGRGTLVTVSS VL: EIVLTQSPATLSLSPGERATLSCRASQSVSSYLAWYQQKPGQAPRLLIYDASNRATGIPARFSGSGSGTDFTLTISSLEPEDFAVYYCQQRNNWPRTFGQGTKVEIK
0

Give recorded 7.4 kd/ 6.0 kd. P1-068748 (antibody, human IgG1, kappa, V domains shown, also called P1-068748-6) VH: QVQLVESGGGVVQPGRSLRLSCAASGFTFSHHAMHWVRQAPGKGLEWVAIIWYDGSNDDYADSVKGRFTISRDNSKNTLYLQMNSLRAEDTAVYYCARDSGFYDSYYFDYWGQGTLVTVSS VL: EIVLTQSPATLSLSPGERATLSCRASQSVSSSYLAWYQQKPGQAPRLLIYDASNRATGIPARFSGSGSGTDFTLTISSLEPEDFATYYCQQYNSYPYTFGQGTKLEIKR
4.8
